- System: G-401 tumor spheroids, viability % test/control
- assayDetails: Anticancer human tumor G-401 cell line growth inhibition;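 further: spheroids exposed to compound for 7 days; 100% = DMSO vehicle-treated spheroids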
- assayConditions: second compound 0.000949 µM; first compound 0.316 µM; hits give low values; spheroids with HUVEC and MSC
- Method: Multicellular complex tumor spheroid response to DNA repair inhibitors in combination with DNA-damaging drugs This study explores the anticancer activities of DNA-damaging drugs and inhibitors of DNA damage repair, both as single agents and in combinations. […] Twenty-six patient-derived or established malignant cell lines were evaluated representing sarcoma, melanoma, small cell lung cancer (SCLC), non-small cell lung cancer (NSCLC), as well as bladder, ovarian and pancreatic cancers. […]
Measured viability, T/C, listed per entry for reference.
resultType: viability, T/C (%)

molecule	resultType	valueReported
[2H]c1nc(C)nc([2H])c1-c1cc(NC[C@@H](C)c2cccc3c(C(=O)NC)ccnc23)ncn1 + COc1cc2c(cc1O)CCNC21CSC2c3c(OC(C)=O)c(C)c4c(c3C(COC1=O)N1C(O)C3Cc5cc(C)c(OC)c(O)c5C(C21)N3C)OCO4	viability, T/C	8.4
Cc1cc(C)c(CNC(=O)c2cc(-c3ccc(CN4CCOCC4)cc3)cc3c2cnn3C2CCCC2)c(=O)[nH]1 + COc1cc2c(cc1O)CCNC21CSC2c3c(OC(C)=O)c(C)c4c(c3C(COC1=O)N1C(O)C3Cc5cc(C)c(OC)c(O)c5C(C21)N3C)OCO4	viability, T/C	6.87
CC(C)n1c(=O)n(C)c2cnc3cc(F)c(-c4ccc(OCCCN5CCCCC5)nc4)cc3c21 + COc1cc2c(cc1O)CCNC21CSC2c3c(OC(C)=O)c(C)c4c(c3C(COC1=O)N1C(O)C3Cc5cc(C)c(OC)c(O)c5C(C21)N3C)OCO4	viability, T/C	7.71
COc1ccc([C@@H](O)c2cc(-c3ncnc4cc(N5CCOCC5)ccc34)c(F)cc2Cl)nn1 + COc1cc2c(cc1O)CCNC21CSC2c3c(OC(C)=O)c(C)c4c(c3C(COC1=O)N1C(O)C3Cc5cc(C)c(OC)c(O)c5C(C21)N3C)OCO4	viability, T/C	2.21
